The origin of these recorded values is patent US6235739A.

# Test system: rat neutrophils
# Test summary: Inhibitory effects on activity of rat neutrophils (release of super oxide anions)
# Assay type: cell-based
# Applied conditions: Neutrophil, stimulation with 0.3 μM calcium ionophore A23187, chemiluminescence, read-out: Action for suppressing release of super oxide anions from rat neutrophils IC50
IC50 vs 2000 nM: less than gives fulfilled; not less than gives not fulfilled.

Take the compound COc1ccc(C2C=NN(Cc3ccccc3)C(=O)C2)cc1OC1CCCC1 (stereo not drawn) [Compound No. 6] and say whether its IC50 is less than 2000 nM. fulfilled

Take the compound COc1ccc(C2C=NN(C)C(=O)C2)cc1OC1CCCC1 (stereo not drawn) [Compound No. 5] and say whether its IC50 is less than 2000 nM. fulfilled

Take the compound COc1ccc(C2C=NNC(=O)C2)cc1OC1CCCC1 (stereo not drawn) [Compound No. 3] and say whether its IC50 is less than 2000 nM. fulfilled

Take the compound COc1ccc(C2C=NN(c3ccccc3)C(=O)C2)cc1OC (stereo not drawn) [Compound No. 2] and say whether its IC50 is less than 2000 nM. fulfilled

Take the compound COc1ccc(C2C=NNC(=O)C2)cc1OC (stereo not drawn) [Compound No. 1] and say whether its IC50 is less than 2000 nM. not fulfilled

Take the compound COc1ccc(C2CC(=O)NN=C2C)cc1OC (stereo not drawn) [compound 27] and say whether its IC50 is less than 2000 nM. not fulfilled
